Biological target: human DGKζ (Homo sapiens (Human))
Sequence (Q13574 other isoform, or with tags, fused parts or gaps): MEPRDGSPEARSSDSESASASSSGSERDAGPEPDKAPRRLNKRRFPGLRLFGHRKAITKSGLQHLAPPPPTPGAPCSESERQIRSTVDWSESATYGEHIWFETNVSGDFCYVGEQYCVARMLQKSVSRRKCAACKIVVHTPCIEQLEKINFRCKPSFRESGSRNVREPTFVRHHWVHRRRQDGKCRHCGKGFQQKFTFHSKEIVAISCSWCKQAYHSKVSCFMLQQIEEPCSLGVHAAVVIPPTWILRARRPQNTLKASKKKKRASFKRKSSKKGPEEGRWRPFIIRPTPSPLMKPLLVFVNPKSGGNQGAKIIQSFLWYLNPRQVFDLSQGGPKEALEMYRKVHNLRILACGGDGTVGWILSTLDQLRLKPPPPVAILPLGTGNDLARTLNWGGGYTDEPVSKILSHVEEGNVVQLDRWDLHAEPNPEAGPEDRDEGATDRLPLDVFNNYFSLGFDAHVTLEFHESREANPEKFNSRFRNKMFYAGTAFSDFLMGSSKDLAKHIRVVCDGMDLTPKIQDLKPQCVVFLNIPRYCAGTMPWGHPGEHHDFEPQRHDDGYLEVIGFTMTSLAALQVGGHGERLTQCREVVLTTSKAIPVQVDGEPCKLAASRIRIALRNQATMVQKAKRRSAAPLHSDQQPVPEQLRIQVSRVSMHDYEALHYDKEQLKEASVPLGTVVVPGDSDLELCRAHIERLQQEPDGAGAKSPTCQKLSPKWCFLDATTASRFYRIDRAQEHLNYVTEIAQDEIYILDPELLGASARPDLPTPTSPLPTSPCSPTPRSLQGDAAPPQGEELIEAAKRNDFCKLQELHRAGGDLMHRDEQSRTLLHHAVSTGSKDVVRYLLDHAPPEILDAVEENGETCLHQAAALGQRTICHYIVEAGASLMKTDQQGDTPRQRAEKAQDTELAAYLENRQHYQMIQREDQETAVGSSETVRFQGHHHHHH
Assay: DGKζ LIPGLO assay (extruded liposome substrate, ADP-Glo luminescence)
Type: biochemical
Conditions: liposome (LIPGLO) assay; read-out: DGK zeta (liposome assay) IC50
pIC50: −log10 of the molar value.
Lab note: anything with pIC50 at or over 6 counts as Met; the rest go in Not met.

Field: example entries. Status: answers known.
CCC(C1CCC(F)(F)CC1)N1C[C@H](C)N(c2nc(=O)n(C)c3ccc(C#N)nc23)C[C@H]1C (stereo partly drawn) [Example 459]    Not met
COC[C@H]1CN(C(C)c2ccc(C(F)(F)F)cc2)[C@H](C)CN1c1nc(=O)n(C)c2ccc(C#N)nc12 (single isomer, unassigned) [Example 410]    Not met
CC[C@H]1CN(C(c2ccc(F)cc2)c2noc(C3CC3)n2)[C@H](CC)CN1c1nc(=O)n(C)c2ccc(C#N)nc12 (single isomer, unassigned) [Example 371]    Met
[2H]C([2H])([2H])n1c(=O)nc(N2C[C@@H](CC)N(C(C)c3ccc(C(F)(F)F)cc3)C[C@@H]2C)c2nc(Cl)ccc21 (single isomer, unassigned) [Example 418]    Not met
[2H]C([2H])([2H])n1c(=O)nc(N2C[C@@H](CC)N(C(C)c3ccc(C(F)(F)F)cc3)C[C@@H]2C)c2nc(Cl)ccc21 (single isomer, unassigned) [Example 417]    Met

Now for another entry.
Lookup: Evaluate CCOc1ccc2c(n1)c(N1C[C@@H](CC)N(C(C)c3ccc(C(F)(F)F)cc3)C[C@@H]1CC)nc(=O)n2C (stereo partly drawn) [Example 429] : pIC50 at minimum 6?
Found: Not met

* * *

Below, each of the compounds is paired with its reported pIC50 value.
Molecular target: human DGKζ (Homo sapiens (Human))
Experiment: DGKζ LIPGLO assay (extruded liposome substrate, ADP-Glo luminescence)
Format: biochemical
Settings: liposome assay; read-out: DGK zeta LIPGLO IC50
Scale explanation: pIC50 corresponds to minus log10 of a concentration expressed in moles per litre.

Lookup: What value of measured pIC50 is listed for CC[C@H]1CN(C(C)c2ccc3c(c2)OC(F)(F)O3)[C@H](CC)CN1c1nc(=O)n(C)c2ccc(C#N)nc12 (single isomer, unassigned) [Example 15] ?
Found: 5.91

Lookup: Can you check COC[C@@H]1CN(c2nc(=O)n(C)c3ccc(C#N)nc23)[C@@H](C)CN1C(C)c1ccc(C(F)(F)F)cc1 (single isomer, unassigned) [Example 174] next?
Found: 6.85

Lookup: Can you check CC(c1ccc(OC(F)(F)F)cc1)N1C[C@H](C)N(c2nc(=O)n(C)c3ccc(C#N)nc23)C[C@H]1C (single isomer, unassigned) [Example 132] next?
Found: 5.23

Lookup: Can you check CC(c1ccc(OC(F)F)cc1)N1C[C@H](C)N(c2nc(=O)n(C)c3ccc(C#N)nc23)C[C@H]1C (single isomer, unassigned) [Example 157] next?
Found: 5.86

Lookup: Can you check CC[C@H]1CN(C(C)c2ccc(C(C)(C)C#N)cc2)[C@H](CC)CN1c1nc(=O)n(C)c2ccc(C#N)nc12 (stereo partly drawn) [Example 196] next?
Found: 7.92

Lookup: Can you check [2H]C([2H])([2H])Oc1ccc(C(C)N2C[C@H](CC)N(c3nc(=O)n(C)c4ccc(C#N)nc34)C[C@H]2CC)cc1 (single isomer, unassigned) [Example 191] next?
Found: 6.59

Lookup: Can you check CC[C@@H]1CN(c2nc(=O)n(C)c3ccc(C#N)nc23)[C@@H](C)CN1C(C)c1ccc(OC(F)(F)F)cc1F (single isomer, unassigned) [Example 82] next?
Found: 5.61

Lookup: Can you check CC[C@@H]1CN(c2nc(=O)n(C)c3ccc(C#N)nc23)[C@@H](C)CN1C(c1ccc(F)cc1)c1ccc(C(F)(F)F)nc1 (single isomer, unassigned) [Example 97] next?
Found: 7.35

Lookup: Can you check CCC(c1ccc(C(F)(F)F)cc1)N1C[C@H](C)N(c2nc(=O)n(C)c3ccc(C#N)nc23)C[C@H]1CC (single isomer, unassigned) [Example 90] next?
Found: 6.23

Lookup: Can you check CCC(c1ccc(C2CC2)cc1)N1C[C@H](CC)N(c2nc(=O)n(C)c3ccc(C#N)nc23)C[C@H]1CC (stereo partly drawn) [Example 201] next?
Found: 6.05

Lookup: Can you check CCC(c1ccc(C2CC2)cc1F)N1C[C@H](C)N(c2nc(=O)n(C)c3ccc(C#N)nc23)C[C@H]1CC (stereo partly drawn) [Example 302] next?
Found: 7.37

Lookup: Can you check CC[C@H]1CN(C(C)c2ccc3oc(C4CC4)nc3c2)[C@H](CC)CN1c1nc(=O)n(C)c2ccc(C#N)nc12 (stereo partly drawn) [Example 253] next?
Found: 7.01

Lookup: Can you check CC[C@H]1CN(C(c2ccc(F)cc2)c2cccc(C(F)(F)F)n2)[C@H](C)CN1c1nc(=O)n(C)c2ccc(C#N)nc12 (stereo partly drawn) [Example 121] next?
Found: 5.78

Lookup: Can you check CCC(c1ccc(OC(F)(F)F)cc1)N1C[C@H](C)N(c2nc(=O)n(C)c3ccc(C#N)nc23)C[C@H]1CC (single isomer, unassigned) [Example 83] next?
Found: 6.80

Lookup: Can you check CC[C@H]1CN(C(C)c2ccc(C)nc2)[C@H](CC)CN1c1nc(=O)n(C)c2ccc(C#N)nc12 (stereo partly drawn) [Example 228] next?
Found: 6.52

Lookup: Can you check CC[C@H]1CN(C(C)c2cccc(OC)n2)[C@H](CC)CN1c1nc(=O)n(C)c2ccc(C#N)nc12 (stereo partly drawn) [Example 214] next?
Found: 5.18

Lookup: Can you check CC(c1ccc(F)cc1F)N1C[C@H](C)N(c2nc(=O)n(C)c3ccc(C#N)nc23)C[C@H]1C (single isomer, unassigned) [Example 145] next?
Found: 5.72

Lookup: Can you check CC[C@H]1CN(C(C)c2ccc(CN3CCC(OC)CC3)cc2)[C@H](CC)CN1c1nc(=O)n(C)c2ccc(C#N)nc12 (single isomer, unassigned) [Example 274] next?
Found: 3.76

* * *

Biological target: UniProt:Q13574
Experiment: DGKζ LIPGLO assay (extruded liposome substrate, ADP-Glo luminescence)
Type: biochemical
Details: liposome assay; read-out: DGK zeta LIPGLO IC50
Below, each of the molecules is paired with its reported IC50 value.
The reply should be a number in nM, with the unit left off.

Lookup: Reported IC50 for UniProt:Q13574, given CCC(c1ccc(OC(F)(F)F)cc1)N1C[C@H](CC)N(c2nc(=O)n(C)c3ccc(C#N)nc23)C[C@H]1CC (single isomer, unassigned) [Example 36] ?
Found: 75

Lookup: Can you check CC[C@H]1CN(C(C)c2ccc(C3(C)CC3)cc2)[C@H](CC)CN1c1nc(=O)n(C)c2ccc(C#N)nc12 (stereo partly shown) next?
Found: 18

Lookup: Can you check CC[C@H]1CN(C(C)c2ccc(C(F)(F)F)cc2F)[C@H](C)CN1c1nc(=O)n(C)c2ccc(C#N)nc12 (stereo partly shown) [Example 119] next?
Found: 730

Lookup: Can you check CC[C@H]1CN(C(c2ccc(F)cc2)c2cccc(C(F)F)n2)[C@H](CC)CN1c1nc(=O)n(C)c2ccc(C#N)nc12 (stereo partly shown) [Example 257] next?
Found: 250

Lookup: Can you check C[C@@H]1CN(c2nc(=O)n(C)c3ccc(C#N)nc23)[C@@H](C)CN1C(c1ccc(F)cc1)c1nc(C2CC2)cs1 (single isomer, unassigned) [Example 158] next?
Found: 570

* * *

Below, each of the compounds is paired with its reported pIC50 value.
Biological target: human DGKα (Homo sapiens (Human))
Sequence (P23743 whole entry, looked up): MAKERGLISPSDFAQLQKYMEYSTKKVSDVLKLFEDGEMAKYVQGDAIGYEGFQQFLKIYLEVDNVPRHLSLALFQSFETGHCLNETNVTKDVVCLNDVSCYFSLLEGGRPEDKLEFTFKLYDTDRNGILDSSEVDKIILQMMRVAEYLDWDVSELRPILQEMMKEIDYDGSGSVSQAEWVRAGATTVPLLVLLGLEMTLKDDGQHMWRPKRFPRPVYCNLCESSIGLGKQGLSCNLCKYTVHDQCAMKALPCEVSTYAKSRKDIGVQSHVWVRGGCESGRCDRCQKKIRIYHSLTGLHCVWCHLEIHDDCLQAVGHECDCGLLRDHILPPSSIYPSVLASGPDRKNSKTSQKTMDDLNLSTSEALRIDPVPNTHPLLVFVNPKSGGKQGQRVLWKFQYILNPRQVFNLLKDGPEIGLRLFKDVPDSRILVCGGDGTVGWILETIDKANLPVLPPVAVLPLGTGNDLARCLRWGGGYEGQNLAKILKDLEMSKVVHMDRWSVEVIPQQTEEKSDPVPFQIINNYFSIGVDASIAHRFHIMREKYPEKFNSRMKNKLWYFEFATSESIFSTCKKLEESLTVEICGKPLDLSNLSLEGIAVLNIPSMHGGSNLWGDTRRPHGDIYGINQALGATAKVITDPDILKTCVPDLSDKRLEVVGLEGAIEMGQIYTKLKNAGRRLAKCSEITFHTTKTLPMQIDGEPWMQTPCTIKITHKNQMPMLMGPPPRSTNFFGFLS
Experiment: DGKα LIPGLO assay (extruded liposome substrate, ADP-Glo luminescence)
Format: biochemical
Conditions: liposome assay; read-out: DGK alpha LIPGLO IC50
Scale explanation: pIC50 corresponds to minus log10 of a concentration expressed in moles per litre.

Some compounds with known pIC50 results, for comparison:
CC[C@@H]1CN(c2nc(=O)n(C)c3ccc(C#N)nc23)[C@@H](C)CN1C(C)c1ccc(C2CC2)cc1 (single isomer, unassigned) [Example 63]    7.40
CC[C@@H]1CN(c2nc(=O)n(C)c3ccc(C#N)nc23)[C@@H](C)CN1C(C)c1ccc(C#N)cc1 (single isomer, unassigned) [Example 60]    7.52

Lookup: What value of measured pIC50 is listed for CC[C@H]1CN(C(C)c2ccc(OCC3CC3)cc2F)[C@H](CC)CN1c1nc(=O)n(C)c2ccc(C#N)nc12 (single isomer, unassigned) [Example 33] ?
Found: 5.59

Lookup: Can you check CC[C@@H]1CN(c2nc(=O)n(C)c3ccc(C#N)nc23)[C@@H](C)CN1C(c1ccc(F)cc1)c1ccc(C2CC2)cn1 (single isomer, unassigned) [Example 75] next?
Found: 7.41

Lookup: Can you check CC[C@H]1CN(C(C)c2ccc(OC(F)(F)F)cc2)[C@H](C)CN1c1nc(=O)n(C)c2ccc(C#N)nc12 (stereo partly drawn) [Example 123] next?
Found: 5.86

Lookup: Can you check CC[C@@H]1CN(c2nc(=O)n(C)c3ccc(C#N)nc23)[C@@H](C)CN1C(c1ccc(F)cc1)c1nc(C2CC2)cs1 (single isomer, unassigned) [Example 50] next?
Found: 6.96

These measurements were taken from patent US11584747B2.
